Data credit: patent US5604203A

Molecular target: intestinal PYY-preferring receptors (Rattus norvegicus, UniProt Q9ERC0)
Sequence (Q9ERC0 1-381): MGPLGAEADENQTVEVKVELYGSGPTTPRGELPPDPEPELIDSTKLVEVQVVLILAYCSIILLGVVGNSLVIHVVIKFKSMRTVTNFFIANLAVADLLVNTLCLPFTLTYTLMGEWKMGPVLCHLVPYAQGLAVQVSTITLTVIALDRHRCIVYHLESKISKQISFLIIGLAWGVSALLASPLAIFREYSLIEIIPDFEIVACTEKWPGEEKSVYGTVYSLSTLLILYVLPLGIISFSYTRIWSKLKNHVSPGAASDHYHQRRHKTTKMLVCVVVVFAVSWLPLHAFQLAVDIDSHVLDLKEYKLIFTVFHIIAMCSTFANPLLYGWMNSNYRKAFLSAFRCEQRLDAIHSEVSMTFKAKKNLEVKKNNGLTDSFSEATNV
Details: IC50 (nM), Table 3; binding activity
quantity: IC50 (nM)
Just the number in nM, nothing appended.

- substance: "Ac-FSLRHFLNLVTRQRY-NH2 [Peptide 908]"
  quantity: "IC50"
  numeric-result: 11.2

Record Ac-YSLRHFLNLVTRQRY-NH2 [Peptide 910] , field IC50: 0.1
